FYI, the data here is from ChEMBL document CHEMBL2157975.

- experiment summary: Selectivity ratio of IC50 for AT1 receptor to IC50 for APJ receptor (unknown receptor)
parameter measured: Ratio IC50

Q: Quick one: Ratio IC50 for Cc1ccnc(SCc2cc(=O)c(OC(=O)c3ccc([N+](=O)[O-])cc3)co2)n1 ?
Result: > 23

Q: Let us now turn to O=C(Oc1coc(CSc2ccccc2)cc1=O)c1ccc(Cl)c([N+](=O)[O-])c1
Result: > 8

Q: Also check Cc1ccnc(SCc2cc(=O)c(OC(=O)c3ccc(C#N)cc3)co2)n1
Result: > 7

Q: Next up: Cc1ccnc(S(=O)(=O)Cc2cc(=O)c(OC(=O)c3ccc(Cl)c([N+](=O)[O-])c3)co2)n1
Result: > 25

Q: What would you report for O=C(Oc1coc(CSc2ccc(OC(F)(F)F)cc2)cc1=O)c1ccc(Cl)c([N+](=O)[O-])c1 ?
Result: > 3

Q: Try this compound next: O=C(Oc1coc(CSc2ncccn2)cc1=O)c1ccc(Cl)c([N+](=O)[O-])c1
Result: > 13

Q: Item: O=C(Oc1coc(CSc2ccc(Cl)cc2)cc1=O)c1ccc(Cl)c([N+](=O)[O-])c1
Result: > 17

Q: Now give it for Cc1ccnc(SCc2cc(=O)c(OC(=O)c3ccc(C)c([N+](=O)[O-])c3)co2)n1 too.
Result: > 17

Q: Repeat for the following compound: Cc1ccc(C(=O)Oc2coc(CSc3ncccn3)cc2=O)cc1[N+](=O)[O-]
Result: > 11

Q: Then this compound: COc1ccc(SCc2cc(=O)c(OC(=O)c3ccc(Cl)c([N+](=O)[O-])c3)co2)cc1
Result: > 9

Q: Field entry: Cc1ccc(SCc2cc(=O)c(OC(=O)c3ccc(Cl)c([N+](=O)[O-])c3)co2)cc1
Result: > 6

Q: Then this compound: N#Cc1ccc(C(=O)Oc2coc(CSc3ncccn3)cc2=O)cc1
Result: > 12
